From: ChEMBL document CHEMBL3393045

A set of compounds tested on Cytochrome P450 2D6 (Homo sapiens), with measured IC50:
READOUT_NAME: IC50

COC(=O)N[C@H](C(=O)N1C[C@@H](C)C[C@H]1c1ncc(-c2ccc(-c3ccc(-c4cc5[nH]c([C@@H]6C[C@H](C)CN6C(=O)[C@@H](NC(=O)OC)C(C)C)nc5s4)cc3)cc2)[nH]1)C(C)C | > 30 µM
COC(=O)N[C@H](C(=O)N1C[C@@H](C)C[C@H]1c1ncc(-c2ccc(-c3ccc(-c4cc5[nH]c([C@@H]6C[C@H](C)CN6C(=O)[C@@H](NC(=O)OC)C(C)C)nc5s4)s3)cc2)[nH]1)C(C)C | > 30 µM
